Target sequence: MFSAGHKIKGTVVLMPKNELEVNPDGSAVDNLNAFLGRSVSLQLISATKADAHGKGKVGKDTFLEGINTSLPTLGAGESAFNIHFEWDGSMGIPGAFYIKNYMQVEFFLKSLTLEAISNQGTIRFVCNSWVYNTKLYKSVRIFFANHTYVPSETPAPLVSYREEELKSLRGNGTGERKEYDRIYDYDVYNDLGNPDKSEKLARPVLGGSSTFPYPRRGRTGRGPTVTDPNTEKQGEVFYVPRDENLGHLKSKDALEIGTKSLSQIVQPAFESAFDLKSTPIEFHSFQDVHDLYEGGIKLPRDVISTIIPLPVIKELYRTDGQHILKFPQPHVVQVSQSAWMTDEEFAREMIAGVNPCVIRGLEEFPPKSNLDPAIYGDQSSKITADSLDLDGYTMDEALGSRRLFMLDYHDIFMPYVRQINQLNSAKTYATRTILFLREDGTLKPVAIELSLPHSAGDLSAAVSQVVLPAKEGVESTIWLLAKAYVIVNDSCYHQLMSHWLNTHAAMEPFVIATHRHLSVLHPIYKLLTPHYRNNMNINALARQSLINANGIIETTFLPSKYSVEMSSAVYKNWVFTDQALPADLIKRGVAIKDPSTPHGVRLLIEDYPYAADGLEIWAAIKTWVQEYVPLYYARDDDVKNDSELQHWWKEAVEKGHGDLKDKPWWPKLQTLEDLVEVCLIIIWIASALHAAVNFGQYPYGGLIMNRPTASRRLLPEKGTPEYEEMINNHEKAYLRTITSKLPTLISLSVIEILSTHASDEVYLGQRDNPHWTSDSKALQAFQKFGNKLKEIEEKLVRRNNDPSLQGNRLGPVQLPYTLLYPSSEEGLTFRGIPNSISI
Listing: IC50 of selected compounds
Dear colleague, please return just the value in µM, with no unit written.

NNC(=O)C(=Cc1cccc([N+](=O)[O-])c1)CC(=O)c1ccc(Cl)c(Cl)c1    2.47
O=C(NCc1ccccc1)C(=Cc1cccc([N+](=O)[O-])c1)CC(=O)c1ccc(Cl)c(Cl)c1    5.87
CN(C)c1ccc(C=C(CC(=O)c2ccc(Cl)c(Cl)c2)C(=O)NN)cc1    3.17
O=c1[nH]nc(-c2ccc(Cl)c(Cl)c2)cc1Cc1cccc([N+](=O)[O-])c1    5.87
O=C1NN(c2ccccc2)C(c2ccc(Cl)c(Cl)c2)=CC1=Cc1cccc([N+](=O)[O-])c1    2.43
CN(C)c1ccc(C=C2C=C(c3ccc(Cl)c(Cl)c3)OC2=O)cc1    6.13
O=c1[nH]nc(-c2ccc(Cl)c(Cl)c2)cc1Cc1ccccc1[N+](=O)[O-]    5.47

In the following, a different compound is considered.
Task: Quick one: IC50 for O=C1NC(c2ccc(Cl)c(Cl)c2)=CC1=Cc1ccccc1[N+](=O)[O-] ?
Result: 2.33
